# System: PAMPA
# COND: Papp (x 10^-6 cm/s) / experiment 10; UV detection
Classification field: criterion met = Papp at or over 2 ×10⁻⁶ cm/s; criterion not met = Papp under 2 ×10⁻⁶ cm/s.

# COMPOUND STRING, CLASS LABEL
rows = [
    ("CCCCC[C@H](OC(=O)[C@@H](C)N(C)C(=O)OC(C)(C)C)C(=O)OCc1ccccc1", "criterion met"),
    ("CCCCC[C@H](OC(=O)[C@@H](C)N(C)C(=O)[C@H](CCCCC)OC(=O)[C@@H](C)N(C)C(=O)[C@H](CCCCC)OC(=O)[C@@H](C)N(C)C(=O)OC(C)(C)C)C(=O)OCc1ccccc1", "criterion met"),
]

[ask] Check this compound for Papp at or above 2 ×10⁻⁶ cm/s: CCCCC[C@H](OC(=O)[C@@H](C)N(C)C(=O)[C@H](CCCCC)OC(=O)[C@@H](C)N(C)C(=O)[C@H](CCCCC)OC(=O)[C@@H](C)N(C)C(=O)[C@H](CCCCC)OC(=O)[C@@H](C)N(C)C(=O)OC(C)(C)C)C(=O)OCc1ccccc1
[reply] criterion not met

[ask] Check this compound for Papp at or above 2 ×10⁻⁶ cm/s: CCCCC[C@H](OC(=O)[C@@H](C)N(C)C(=O)[C@H](CCCCC)OC(=O)[C@@H](C)N(C)C(=O)[C@H](CCCCC)OC(=O)[C@@H](C)N(C)C(=O)[C@H](CCCCC)OC(=O)[C@@H](C)N(C)C(=O)[C@H](CCCCC)OC(=O)[C@@H](C)N(C)C(=O)[C@H](CCCCC)OC(=O)[C@@H](C)N(C)C(=O)OC(C)(C)C)C(=O)OCc1ccccc1
[reply] criterion not met

[ask] Check this compound for Papp at or above 2 ×10⁻⁶ cm/s: CCCCC[C@H](OC(=O)[C@@H](C)N(C)C(=O)[C@H](CCCCC)OC(=O)[C@@H](C)N(C)C(=O)OC(C)(C)C)C(=O)OCc1ccccc1
[reply] criterion met

[ask] Check this compound for Papp at or above 2 ×10⁻⁶ cm/s: CCCCC[C@H](OC(=O)[C@@H](C)N(C)C(=O)[C@H](CCCCC)OC(=O)[C@@H](C)N(C)C(=O)[C@H](CCCCC)OC(=O)[C@@H](C)N(C)C(=O)[C@H](CCCCC)OC(=O)[C@@H](C)N(C)C(=O)[C@H](CCCCC)OC(=O)[C@@H](C)N(C)C(=O)OC(C)(C)C)C(=O)OCc1ccccc1
[reply] criterion not met
